TGI by entry:
system: K-562 leukemia; test: NCI tumour cell line growth inhibition, 48 h

Return reported TGI; argument: NC(=S)N/N=C(/C(=O)Nc1nc2ccc([N+](=O)[O-])cc2s1)C1C(=O)NC(=S)NC1=O
> 100 µM

Return reported TGI; argument: CC(C)(O)[C@H]1[C@@H]2OC(=O)[C@H]1[C@]1(O)C[C@H]3OC34C(=O)O[C@H]2[C@@]41C (stereo not given in full) (tested in a mixture with another compound)
> 100 µM

Return reported TGI; argument: COC(=O)C1=CC2OC1(C)C1(CC1)C2=O (stereo not given)
41.9 µM

Return reported TGI; argument: Cc1ccc2sc3c(NCCCNCCO)nc4ccccc4c3c(=O)c2c1
3.72 µM

Return reported TGI; argument: C=CC(c1ccccc1)C1(O)c2cccc(O)c2C(=O)c2c(O)cccc21 (stereo not given)
37.7 µM

Return reported TGI; argument: CC1OC(O)CC(OC(=O)c2ccccc2)C1OC(=O)c1ccccc1 (stereo not given)
57.5 µM

New cases:
Return reported TGI; argument: O=C(NN1C(=O)c2ccccc2C1=O)c1ccccc1Nc1ccccc1C(=O)NN1C(=O)c2ccccc2C1=O
> 100 µM

Return reported TGI; argument: COc1ccc(CCN(C)C(=O)CC(C#N)(c2ccccc2)c2ccc(OC)c(OC)c2)cc1OC (stereo not given)
> 100 µM

Return reported TGI; argument: CCN(CC)CCOc1cc2c(C(=O)OC)c(C)oc2cc1C(C)=O
29.2 µM

Return reported TGI; argument: CCO/C(O)=C(/C(=N)N1CCCC1)C(=O)Nc1ccc(Cl)cc1
> 100 µM

* * *

log10 of TGI by entry:
system: NCI-H522 lung; assay: NCI tumour cell line growth inhibition, 48 h
Note the log scale: values are log10 of TGI expressed in µM.

Solved entries (count: 4):
Return reported log10 of TGI; argument: Clc1ccc2nc(CCSCCc3nc4ccc(Cl)cc4[nH]3)[nH]c2c1
1.42

Return reported log10 of TGI; argument: COc1ccc(Nc2ccnc(NCCCNc3ccnc4cc(Cl)ccc34)n2)cc1
0.56

Return reported log10 of TGI; argument: COc1ccc(/C=C/[N+](=O)[O-])cc1
1.64

Return reported log10 of TGI; argument: CCNc1nc(N2CC(=O)Nc3cc(OC)ccc32)c2ccccc2n1
-2.11

Attention now turns to another entry.
Return reported log10 of TGI; argument: CSC(=N)N1N=C2c3ccccc3CC[C@@H]2[C@@H]1c1ccccc1
1.44

* * *

tested on: ACHN renal; test: NCI tumour cell line growth inhibition, 48 h
TGI by entry:

Solved entries (count: 4):
Return reported TGI; argument: COC(=O)c1c2c(c(C)[n+]([O-])c1C)C(=O)C(NCc1ccc(F)c(F)c1)=CC2=O
7.68 µM

Return reported TGI; argument: S=C1NN=C2C(=C3CCCC4C5CCCCC5N2C34)N1 (stereo unspecified)
> 100 µM

Return reported TGI; argument: Cn1cnc2c(NCc3ccccc3)nc(NCCO)nc21
> 468 µM

Return reported TGI; argument: Clc1ccc2nc(CCSCCc3nc4ccc(Cl)cc4[nH]3)[nH]c2c1
11.4 µM

New cases:
Return reported TGI; argument: CCn1c(=O)c2c3ccc(O)cc3oc2c2ccc(O)cc21
88 µM

Return reported TGI; argument: CC1=CCC[C@]2(C)C1=CC(=O)O[C@H]2c1ccoc1
> 100 µM

* * *

test system: NCI-H460 lung
A correct response names exactly one class from YES (active), NO (inactive)

Example cases with answers are listed next.
Dear all, I need the recorded test outcome for COc1cccc2c1c1nc3cc(C)c(C)cc3nc1n2CCN(C)C , thank you.
NO

Dear all, I need the recorded test outcome for CN1CCN(Cc2ccc(Nc3ncc(Cl)c(Nc4ccccc4S(=O)(=O)N(C)C)n3)cc2)CC1 , thank you.
YES

Dear all, I need the recorded test outcome for CCCC(=O)NNc1[nH]c(-c2ccc(OC)cc2)cc1C(=O)OCC , thank you.
NO

Dear all, I need the recorded test outcome for COc1ccc(Nc2ccnc(NCCCNc3ccnc4cc(Cl)ccc34)n2)cc1 , thank you.
NO

Dear all, I need the recorded test outcome for COC(=O)Nc1nc2ccc(Oc3ccc(NC(=O)Nc4cccc(Cl)c4)cc3)cc2[nH]1 , thank you.
NO

New cases:
Dear all, I need the recorded test outcome for O=C1/C(=C/C(Cl)=C/c2ccccc2)SC(=S)N1CCc1ccc(O)cc1 , thank you.
NO

Dear all, I need the recorded test outcome for CCN(CC)CCOc1cc2c(C(=O)OC)c(C)oc2cc1C(C)=O , thank you.
NO

* * *

test system: KM12 colon; assay: NCI tumour cell line growth inhibition, 48 h
TGI by entry:

Solved entries (count: 10):
Return reported TGI; argument: CNC(=S)NNC1=NCCCCN1
> 100 µM

Return reported TGI; argument: CCOC(=O)c1cc2ncccc2c2ccccc12
> 100 µM

Return reported TGI; argument: CSC(=N)N1N=C2c3ccccc3CC[C@@H]2[C@@H]1c1ccccc1
27.9 µM

Return reported TGI; argument: CN=S(=O)(C[C@]1(O)CC2OC1C1OC(C)(C)OC21)c1ccccc1 (stereo partly specified)
> 100 µM

Return reported TGI; argument: O=C1c2cccnc2C(=O)c2c1nc1ccccc1c2-c1cncc(-c2c3c(nc4ccccc24)C(=O)c2cccnc2C3=O)c1
2 µM

Return reported TGI; argument: CCN(CC)CCOc1cc2c(C(=O)OC)c(C)oc2cc1C(C)=O
21.1 µM

Return reported TGI; argument: COc1ccc(N2C(=O)/C(=C\c3cc(OC)c(OC)c(OC)c3)S(=O)(=O)C2c2ccccc2)cc1 (stereo unspecified)
> 100 µM

Return reported TGI; argument: C=CC1(c2ccc(Br)cc2)OCCCO1
> 100 µM

Return reported TGI; argument: O=C(Cn1ccnc1[N+](=O)[O-])NCC(F)(F)C(F)(F)F
> 100 µM

Return reported TGI; argument: C/C(=C\c1ccn(-c2ccc(N)cc2)n1)[C@@H]1C[C@@H]2O[C@]2(C)CCC[C@H](C)[C@H](O)[C@@H](C)C(=O)C(C)(C)[C@@H](O)CC(=O)O1
> 50 µM

New cases:
Return reported TGI; argument: S=C1NN=C2C(=C3CCCC4C5CCCCC5N2C34)N1 (stereo unspecified)
> 100 µM

Return reported TGI; argument: CCCCCNC1=CC(=O)c2ccccc2C1=O
> 100 µM

Return reported TGI; argument: CCOn1cc(C2=C(c3c[nH]c4ccccc34)C(=O)NC2=O)c2ccccc21
2 µM

Return reported TGI; argument: COC(=O)[C@@H](C)C[C@H](Cc1ccccc1)NC(=O)c1csc([C@@H](C[C@H](C(C)C)N(C)C(=O)[C@@H](NC(=O)[C@H]2CCCCN2C)C(C)C)OC(C)=O)n1
> 25 µM

Return reported TGI; argument: CCCCCCCCCCCCNC1(C)CNCCCNCCNCCCNC1
2.89 µM

Return reported TGI; argument: O=C(Nc1ccc(Br)c(Cl)c1)c1cc(F)ccc1O
5.23 µM

Return reported TGI; argument: CC12CC3CC(C)(C1)CC(N=[N+]=[N-])(C3)C2
> 100 µM

Return reported TGI; argument: O=C1/C(=C/c2ccc(Cl)cc2)CN(C(=O)C(Cl)Cl)C/C1=C\c1ccc(Cl)cc1
0.273 µM

Return reported TGI; argument: COc1cc2c(cc1OC)[C@@]1(C)C(=O)c3cc4c(cc3[C@H]1N(C)C2=O)OCO4
> 100 µM

Return reported TGI; argument: COc1ccc2c(c1)Cc1c-2c(NN)nc2ccccc12
> 100 µM

Return reported TGI; argument: CN1CCN(Cc2ccc(Nc3ncc(Cl)c(Nc4ccccc4S(=O)(=O)N(C)C)n3)cc2)CC1
> 100 µM

* * *

test system: SK-MEL-2 melanoma; assay: NCI tumour cell line growth inhibition, 48 h
Measured metric: TGI

Solved entries (count: 10):
Return reported TGI; argument: CC12CC3CC(C)(C1)CC(N=[N+]=[N-])(C3)C2
> 100 µM

Return reported TGI; argument: CSC(=N)N1N=C2c3ccccc3CC[C@@H]2[C@@H]1c1ccccc1
29.2 µM

Return reported TGI; argument: COc1cc([C@H]2Oc3cc(O)c4c(=O)cc(-c5ccc(O)cc5)oc4c3O[C@@H]2CO)ccc1O
30.7 µM

Return reported TGI; argument: Cc1ccc(NC(=O)c2ccnc(N3CCCC3)c2)cc1-c1ccc(C(=O)NCC2CC2)cc1
> 25 µM

Return reported TGI; argument: Cc1cc(C)n(-c2c(O)ccc(O)c2-n2nc(C)cc2C)n1
> 100 µM

Return reported TGI; argument: COC(=O)[C@]12CSC[C@H]1C[C@H](c1ccc(N(C)C)cc1)N2
> 100 µM

Return reported TGI; argument: COc1cc2c3c(n(C4CCNCC4)c(=O)c2cc1OC)-c1cc2c(cc1C3=O)OCO2
> 100 µM

Return reported TGI; argument: COC1/C=C\OC2(C)Oc3c(C)c(O)c4c(O)c(c(CN(C)C)c(O)c4c3C2=O)NC(=O)/C(C)=C\C=C/C(C)C(O)C(C)C(O)C(C)C(OC(C)=O)C1C (stereo unspecified)
42.5 µM

Return reported TGI; argument: N#CC(C#N)=C1CCCCc2ccc([N+](=O)[O-])cc21
> 100 µM

Return reported TGI; argument: C/C(=C\COP(=O)(O)OP(=O)(O)O)CC/C=C(\C)CNc1ccc([N+](=O)[O-])cc1
> 100 µM

New cases:
Return reported TGI; argument: C=CC1(c2ccc(Br)cc2)OCCCO1
> 100 µM

Return reported TGI; argument: Cc1n[nH]c(=O)n1/N=C/c1cccnc1
> 100 µM

Return reported TGI; argument: CCOC(=O)C1C(c2ccc([N+](=O)[O-])cc2)NC(c2ccc([N+](=O)[O-])cc2)C(C(=O)OC)S1(=O)=O (stereo unspecified)
> 100 µM

Return reported TGI; argument: COC(=O)Nc1nc2ccc(Oc3ccc(NC(=O)Nc4cccc(Cl)c4)cc3)cc2[nH]1
8.06 µM

Return reported TGI; argument: O=C1c2ccccc2C(=O)c2c(O)c(O)cc(O)c21
69.1 µM

Return reported TGI; argument: CC/C(=C(\CC)c1ccc(OCCN(CC)CC)cc1)c1ccc(OCCN(CC)CC)cc1
7.58 µM

Return reported TGI; argument: CCCCCNC1=CC(=O)c2ccccc2C1=O
53.6 µM
